Test system: M14 melanoma
protocolDescription: NCI tumour cell line growth inhibition, 48 h
TGI by entry:

See these solved cases before continuing.
INSERT INTO results (compound, measurementtarget, result) VALUES
  ('COC(=O)C(c1ccc(OC)cc1)N1C(=O)[C@@H](NC(=O)c2ccccc2)[C@H]1[C@@H](C)O (stereo not given in full)', 'M14 melanoma', '> 100 µM'),
  ('NC(CCCCNCc1ccccc1)C(=O)O (stereo not given)', 'M14 melanoma', '> 100 µM'),
  ('NC(=O)CCSC(CC(=O)c1ccc(Cl)cc1)c1ccc(Cl)cc1 (stereo not given)', 'M14 melanoma', '83.3 µM'),
  ('Nc1nn(C(=O)Nc2c(F)cccc2F)c2ccccc12', 'M14 melanoma', '> 100 µM');

Q: Can you look up the measured TGI of C/C=C\C(CC(=O)OC)CC(=O)N(CCC1CN(S(=O)(=O)C(F)(F)F)c2ccccc21)Cc1ccc(OC)cc1OC (stereo not given) for me?
A: > 100 µM

Q: Can you look up the measured TGI of CC1Cc2ccccc2N1C(=O)Cc1nc(N2CCOCC2)cc(=O)[nH]1 (stereo not given) for me?
A: > 100 µM

Q: Can you look up the measured TGI of O=[N+]([O-])c1ccc2c(c1)C(c1ccccc1Cl)=Nc1c(n[nH]c1-c1cccnc1)N2 for me?
A: > 25 µM

Q: Can you look up the measured TGI of N#CCc1nnc(N)o1 for me?
A: > 100 µM

Q: Can you look up the measured TGI of COc1cc(C2CC(=O)Nc3c2c(C)nn3-c2nc3ccccc3[nH]2)cc(OC)c1O (stereo not given) for me?
A: 5.53 µM

Q: Can you look up the measured TGI of OCC1CCCC1O (stereo not given) for me?
A: > 100 µM

Q: Can you look up the measured TGI of CCCC[C@H]1C(=O)O[C@H](C)[C@H](NC(=O)c2cccc(NC=O)c2OC)C(=O)O[C@@H](C)[C@@H]1OC(=O)CC(C)C (tested in a mixture with another compound) for me?
A: 46.6 µM
